Molecular target: human nicotinic acetylcholine receptor subtype α4β2 (Homo sapiens, UniProt P17787+P43681)
Sequence (P43681 29-627 limits assumed): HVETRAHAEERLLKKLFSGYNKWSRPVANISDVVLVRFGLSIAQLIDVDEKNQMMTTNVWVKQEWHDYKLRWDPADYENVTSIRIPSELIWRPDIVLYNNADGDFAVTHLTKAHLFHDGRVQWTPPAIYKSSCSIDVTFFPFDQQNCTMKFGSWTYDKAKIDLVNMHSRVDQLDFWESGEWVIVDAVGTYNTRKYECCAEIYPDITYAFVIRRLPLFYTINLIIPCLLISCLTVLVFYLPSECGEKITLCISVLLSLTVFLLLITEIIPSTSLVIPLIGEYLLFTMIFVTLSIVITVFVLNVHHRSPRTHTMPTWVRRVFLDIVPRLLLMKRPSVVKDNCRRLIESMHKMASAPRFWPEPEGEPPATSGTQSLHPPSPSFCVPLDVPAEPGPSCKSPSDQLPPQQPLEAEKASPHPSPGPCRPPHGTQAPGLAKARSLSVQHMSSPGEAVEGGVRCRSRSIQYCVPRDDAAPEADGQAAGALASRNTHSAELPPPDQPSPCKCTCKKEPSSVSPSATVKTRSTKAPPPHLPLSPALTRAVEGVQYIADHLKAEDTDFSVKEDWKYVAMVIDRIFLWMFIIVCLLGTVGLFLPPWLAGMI
Sequence (P17787 26-502): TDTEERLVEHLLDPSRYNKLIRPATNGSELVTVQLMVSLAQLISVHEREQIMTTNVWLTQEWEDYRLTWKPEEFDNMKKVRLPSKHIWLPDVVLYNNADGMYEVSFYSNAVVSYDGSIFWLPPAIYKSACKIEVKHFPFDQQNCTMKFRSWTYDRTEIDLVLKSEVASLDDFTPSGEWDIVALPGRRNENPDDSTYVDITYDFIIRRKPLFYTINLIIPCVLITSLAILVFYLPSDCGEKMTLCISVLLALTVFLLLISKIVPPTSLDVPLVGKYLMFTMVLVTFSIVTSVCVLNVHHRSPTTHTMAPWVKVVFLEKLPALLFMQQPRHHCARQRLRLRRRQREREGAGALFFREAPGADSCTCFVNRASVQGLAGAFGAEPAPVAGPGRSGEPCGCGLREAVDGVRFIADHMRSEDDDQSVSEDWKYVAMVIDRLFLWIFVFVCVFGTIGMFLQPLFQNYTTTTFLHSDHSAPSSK
Assay: Characterization of hα4β2 positive allosteric modulators using FLIPR
Details: positive modulation of sub-maximal nicotine (EC20-30) response, human HEK cells expressing hα4β2, peak values
Description: The ability is determined relative to a maximal nicotine response (normally 100 μM). The activity is determined as a standard assay using a fluorometric method in a Fluorescent Image Plate Reader (FLIPR) as described below in more detail. Full concentration/response curves are generated and EC50 values are calculated based on peak values. […] The maximal positively modulated response is determined relative to the reference (nicotine) response.
Assay readout: pEC50
Bear in mind: pEC50 is minus log10 of a mol/L concentration; give just that figure.

Challenge: Give the measured pEC50 of O=[N+]([O-])c1ccc(-c2nc(-c3cccnc3)no2)o1 .
Response given: 5.17

Source listed as patent US8017631B2.
